Reference for the values: patent US20250154121A1

Biological target: ACE2 receptor (Homo sapiens, UniProt Q9BYF1)
Sequence (Q9BYF1 18-805): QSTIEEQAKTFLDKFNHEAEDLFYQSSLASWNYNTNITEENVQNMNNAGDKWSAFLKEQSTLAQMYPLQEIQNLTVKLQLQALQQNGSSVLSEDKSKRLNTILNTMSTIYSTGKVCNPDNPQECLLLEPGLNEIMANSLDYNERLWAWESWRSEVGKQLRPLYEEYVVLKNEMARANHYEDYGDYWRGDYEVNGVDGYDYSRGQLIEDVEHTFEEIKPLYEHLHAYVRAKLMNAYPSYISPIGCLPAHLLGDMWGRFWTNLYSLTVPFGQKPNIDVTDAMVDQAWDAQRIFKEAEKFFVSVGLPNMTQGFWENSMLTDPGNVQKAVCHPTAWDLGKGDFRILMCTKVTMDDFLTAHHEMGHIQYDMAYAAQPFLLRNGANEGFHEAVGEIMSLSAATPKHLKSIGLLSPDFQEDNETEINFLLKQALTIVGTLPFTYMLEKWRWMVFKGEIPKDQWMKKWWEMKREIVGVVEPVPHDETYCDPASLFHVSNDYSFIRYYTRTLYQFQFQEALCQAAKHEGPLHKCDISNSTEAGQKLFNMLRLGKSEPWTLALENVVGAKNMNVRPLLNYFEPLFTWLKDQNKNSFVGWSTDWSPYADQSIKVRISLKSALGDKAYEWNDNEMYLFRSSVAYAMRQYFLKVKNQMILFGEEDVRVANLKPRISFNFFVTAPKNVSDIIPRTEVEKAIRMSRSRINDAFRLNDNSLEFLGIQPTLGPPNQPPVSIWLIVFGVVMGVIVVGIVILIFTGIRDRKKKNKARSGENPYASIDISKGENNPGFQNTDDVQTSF
VALUE_KIND: Kd (nM)
Numbers only here, please. The scale is nM.

Task: Which Kd is listed for O=c1c(-c2ccccc2)coc2cc(OCCNC3CC3)ccc12 ?
Output: 1070

* * *

Test system: Influenza A (H1N1) virus FM1 strain
Experiment: Mouse pneumonia model infected with influenza A (H1N1) virus FM1 strain (lung index)
Type: in vivo, ICR mice
Conditions: Table 1 (Example 13); 50 mg/kg gavage once a day for 4 days
Here the recorded lung index is given for each entry.
Answer field: number only, no words.

COc1ccc(-c2coc3cc(O[C@@H]4OC(CO)[C@@H](O)C(O)C4O)ccc3c2=O)cc1O (stereo partly shown) [Compound F2, reference compound]    1.12
O=c1c(-c2ccccc2)coc2cc(OCCNC3CC3)ccc12    1.01

Task: Which lung index is listed for O=c1c(-c2ccccc2)coc2cc(O)ccc12 [Compound F1, reference compound] ?
Output: 1.06

Task: Which lung index is listed for COc1ccc(-c2coc3cc(O)ccc3c2=O)cc1O [Compound F3, reference compound] ?
Output: 1.31
